Molecular target: Recombinant protein Claudin 18.2
Sequence (chain, as listed by the source limits assumed, form in doubt): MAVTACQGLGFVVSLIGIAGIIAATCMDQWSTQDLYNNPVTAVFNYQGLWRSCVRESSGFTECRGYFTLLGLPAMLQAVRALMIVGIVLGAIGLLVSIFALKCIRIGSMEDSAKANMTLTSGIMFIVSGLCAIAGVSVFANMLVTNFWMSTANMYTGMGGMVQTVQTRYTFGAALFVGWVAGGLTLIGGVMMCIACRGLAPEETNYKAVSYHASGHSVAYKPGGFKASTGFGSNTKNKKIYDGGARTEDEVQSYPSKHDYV
Assay: ELISA-based assay on Claudin 18.2, y axis RLU; Kd table under the graph, no unit in the table, unit from the x axis log[antibody] nM
Criterion: Kd strictly less than 0.2 nM. Met: MET. Not met: NOT MET.

BINDER	ASSIGNED_CATEGORY
h5C9oj (antibody, V domains shown) VH: EVQLVESGGGLVQPGGSLRLSCAVSGYTFSMNWVRQAPGKGLEWVAWINMYTGEPTYADDFKGRFTISRDDSKNTLYLQMNSLRAEDTAVYYCARLYNGNALDYWGQGTLVTVSS VL: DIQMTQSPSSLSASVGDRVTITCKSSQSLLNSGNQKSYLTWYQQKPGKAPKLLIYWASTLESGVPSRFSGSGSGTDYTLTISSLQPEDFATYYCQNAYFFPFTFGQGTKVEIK	NOT MET
h5C9oah (antibody, V domains shown) VH: EVQLVESGGGLVQPGGSLRLSCAVSGYTFSMNWVRQAPGKGLEWVAWINMYTGEPTYADDFKGRFTISRDDSKNTLYLQMNSLRAEDTAVYYCARSSRGNGFDYWGQGTLVTVSS VL: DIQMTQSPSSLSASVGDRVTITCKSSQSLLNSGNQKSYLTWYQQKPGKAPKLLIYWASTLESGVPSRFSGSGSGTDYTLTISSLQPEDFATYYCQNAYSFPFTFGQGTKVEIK	NOT MET
Anti-CLDN 18.2-5C9ob (humanized antibody h5C9ob) (antibody, human IgG1, V domains shown) VH: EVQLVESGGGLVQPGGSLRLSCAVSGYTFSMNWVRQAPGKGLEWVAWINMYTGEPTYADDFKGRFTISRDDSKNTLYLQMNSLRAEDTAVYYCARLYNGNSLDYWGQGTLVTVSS VL: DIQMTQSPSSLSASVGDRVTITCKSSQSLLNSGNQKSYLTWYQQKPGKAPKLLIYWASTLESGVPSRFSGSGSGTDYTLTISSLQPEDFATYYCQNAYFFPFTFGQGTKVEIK	NOT MET
h5C9oi (antibody, V domains shown) VH: EVQLVESGGGLVQPGGSLRLSCAVSGYTFSMNWVRQAPGKGLEWVAWINMYTGEPTYADDFKGRFTISRDDSKNTLYLQMNSLRAEDTAVYYCARMYNGNSLDYWGQGTLVTVSS VL: DIQMTQSPSSLSASVGDRVTITCKSSQSLLNSGNQKSYLTWYQQKPGKAPKLLIYWASTLESGVPSRFSGSGSGTDYTLTISSLQPEDFATYYCQNSYSFPFTFGQGTKVEIK	NOT MET
Anti-CLDN 18.2-5C9oae (humanized antibody h5C9oae) (antibody, human IgG1, V domains shown) VH: EVQLVESGGGLVQPGGSLRLSCAVSGYTFSMNWVRQAPGKGLEWVAWINMYTGEPTYADDFKGRFTISRDDSKNTLYLQMNSLRAEDTAVYYCARLYRGNSLDYWGQGTLVTVSS VL: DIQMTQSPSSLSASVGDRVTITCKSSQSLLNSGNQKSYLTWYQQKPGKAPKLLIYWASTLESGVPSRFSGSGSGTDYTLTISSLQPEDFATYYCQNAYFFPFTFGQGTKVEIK	MET
